# Test system: HEL cells
# Test summary: Cytotoxicity, cell morphology (MCC) in HEL cells
# Assay type: cell-based, human
# Settings: minimum cytotoxic concentration causing microscopically detectable alteration of cell morphology

{"Molecule": "CCOP(=O)(CCn1cc(CN2C(=O)c3cccc4cc([N+](=O)[O-])cc(c34)C2=O)nn1)OCC [Compound 16b]", "Cytotoxicity, Cell Morphology (MCC)": "100 μM"}
{"Molecule": "CCOP(=O)(CCOCCn1cc(CN2C(=O)c3cccc4c(Br)ccc(c34)C2=O)nn1)OCC [Compound 15h]", "Cytotoxicity, Cell Morphology (MCC)": ">100 μM"}
{"Molecule": "CCOP(=O)(CCCCn1cc(CN2C(=O)c3cccc4cccc(c34)C2=O)nn1)OCC [Compound 14d]", "Cytotoxicity, Cell Morphology (MCC)": ">100 μM"}
{"Molecule": "CCOP(=O)(CCOCCn1cc(CN2C(=O)c3cccc4cccc(c34)C2=O)nn1)OCC [Compound 14h]", "Cytotoxicity, Cell Morphology (MCC)": ">100 μM"}

* * *

# Test system: TK+ VZV strain
# Test summary: microbe, parasite or virus in culture
# Assay type: cell-based, varicella-zoster virus (VZV) strain Oka
# Settings: Human alphaherpesvirus 3, HEL, read-out: Antiviral Activity EC50, TK+ VZV Strain, HEL cell cultures; concentration reducing virus plaque formation by 50%
pEC50: −log10 of the molar value.
Measured property: pEC50

{"Molecule": "CCOP(=O)(CCCn1cc(CN2C(=O)c3cccc4cccc(c34)C2=O)nn1)OCC [Compound 14c]", "Lt gt eq": "<", "Measured value": 4.00}
{"Molecule": "CCOP(=O)(CCn1cc(CN2C(=O)c3cccc4cc([N+](=O)[O-])cc(c34)C2=O)nn1)OCC [Compound 16b]", "Lt gt eq": "<", "Measured value": 4.00}
{"Molecule": "CCOP(=O)(CCCCn1cc(CN2C(=O)c3cccc4cc([N+](=O)[O-])cc(c34)C2=O)nn1)OCC [Compound 16d]", "Lt gt eq": "=", "Measured value": 4.52}
{"Molecule": "CCOP(=O)(CCOCCn1cc(CN2C(=O)c3cccc4cccc(c34)C2=O)nn1)OCC [Compound 14h]", "Lt gt eq": "<", "Measured value": 4.00}
{"Molecule": "CCOP(=O)(CCOCCn1cc(CN2C(=O)c3cccc4c(Br)ccc(c34)C2=O)nn1)OCC [Compound 15h]", "Lt gt eq": "=", "Measured value": 4.43}
{"Molecule": "CCOP(=O)(CCOCCn1cc(CN2C(=O)c3cccc4cc([N+](=O)[O-])cc(c34)C2=O)nn1)OCC [Compound 16h]", "Lt gt eq": "=", "Measured value": 4.39}
{"Molecule": "CCOP(=O)(CC(O)Cn1cc(CN2C(=O)c3cccc4c(Br)ccc(c34)C2=O)nn1)OCC (stereo not drawn) [Compound 15f]", "Lt gt eq": "=", "Measured value": 4.06}
{"Molecule": "CCOP(=O)(CC(O)Cn1cc(CN2C(=O)c3cccc4cc([N+](=O)[O-])cc(c34)C2=O)nn1)OCC (stereo not drawn) [Compound 16f]", "Lt gt eq": "=", "Measured value": 4.25}
{"Molecule": "CCOP(=O)(CCCCn1cc(CN2C(=O)c3cccc4cccc(c34)C2=O)nn1)OCC [Compound 14d]", "Lt gt eq": "=", "Measured value": 4.06}
